Tested on: lysozyme
METHOD_SUMMARY: ESI-MS of lysozyme glycoforms after incubation with D-ribose
STUDY_CONDITIONS: lysozyme with one carboxymethylated Lys residue (14,364 Da); 37° C., 5 days
Peak area as % of total area of all glycoforms, 14,364 vs 5%: at or above is 1, below is -1.

molecule="Oc1ccc(CC2NCCc3cc(O)c(O)cc32)cc1O (racemic) [(±)-Tetrahydropapaveroline]" study_target=lysozyme cat=-1
molecule="O=c1cc(-c2ccccc2O)oc2cc(O)cc(O)c12 [5,7,2′-Trihydroxyflavone]" study_target=lysozyme cat=1
molecule="O=c1c(O)c(-c2ccccc2)oc2cc(O)cc(O)c12 [Galangin]" study_target=lysozyme cat=-1

Please find the next molecule below.
Q: Evaluate Oc1c(Br)cc(Br)c2cccnc12 [Broxyquinoline] : Peak area as % of total area of all glycoforms, 14,364 at minimum 5%?
Ans: -1

* * *

Test system: lysozyme
METHOD_SUMMARY: ESI-MS of lysozyme glycoforms after incubation with D-ribose;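 further: lysozyme incubated with D-ribose, with or without anti-glycation agents, then separated by reversed-phase HPLC and analysed by electrospray mass spectrometry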
STUDY_CONDITIONS: unmodified lysozyme (14,305 Da); 37° C., 5 days
Kindly supply the reported Peak area as % of total area of all glycoforms, 14,305 values for the records listed here.
# number then unit; no other words

molecule="O=C(O[C@@H]1Cc2c(O)cc(O)cc2O[C@@H]1c1cc(O)c(O)c(O)c1)c1cc(O)c(O)c(O)c1 [(−)-Epigallocatechin gallate]" obs_value=69.1%
molecule="Oc1ccc(CC2NCCc3cc(O)c(O)cc32)cc1O (racemic) [(±)-Tetrahydropapaveroline]" obs_value=68.9%

Turning now to a further record.
Q: Recorded Peak area as % of total area of all glycoforms, 14,305 of C[C@@](Cc1ccc(O)c(O)c1)(NN)C(=O)O [S(−)-Carbidopa] , please.
Ans: 67.9%
